System: 786-0
Experiment: NCI tumour cell line growth inhibition, 48 h
The source made the active and inactive calls. Cut-off read from the data, not from the text of the source: active = GI50 up to about 1.1 µM and inactive = higher.
Pick one and only one: true for active, false for inactive

Short answer needed: outcome of this test for CC1=CC(=O)/C(=C(/C)NCCN(CCN/C(C)=C2\C(=O)C=C(C)OC2=O)CCN/C(C)=C2\C(=O)C=C(C)OC2=O)C(=O)O1 ?
false

Short answer needed: outcome of this test for COC(=O)/C(=N\NC(=O)C[N+](C)(C)C)C(C(=O)OC)C(=O)C(=O)Nc1ccccc1C(N)=O (stereo not drawn) ?
false

Short answer needed: outcome of this test for CC(=O)O[C@H]1C(=O)[C@@]2(C)[C@H]([C@H](OC(=O)c3ccccc3)[C@]3(O)C[C@H](OC(=O)[C@H](O)[C@@H](NC(=O)OC(C)(C)C)c4ccco4)C(C)=C1C3(C)C)[C@]1(OC(C)=O)CO[C@@H]1C[C@@H]2O ?
true

Short answer needed: outcome of this test for CSc1ccc(/C=C/C(=O)c2nc3ccccc3[nH]2)cc1 ?
false

Short answer needed: outcome of this test for COc1ccc(-c2oc3c(OC)c(OC)c(OC)c(O)c3c(=O)c2OC)cc1O ?
true

Short answer needed: outcome of this test for O=C(n1[nH]c(=O)n(-c2ccc([N+](=O)[O-])cc2)c1=O)C(Cl)(Cl)Cl ?
false

Short answer needed: outcome of this test for CC1(C)OCC(COC(=O)NCn2cc(-c3ccccc3)nn2)O1 (stereo not drawn) ?
false

Short answer needed: outcome of this test for Cc1cc(-c2nc3cccc(O)c3s2)ccc1N ?
false

###

Test system: SF-295
Experiment: NCI tumour cell line growth inhibition, 48 h
Active and inactive are the calls of the source. Rule as the data show it: active = GI50 up to about 1.1 µM and inactive = higher.
Pick one and only one: true (1) (active), false (0) (inactive)

The examples below pair each entry with its known result.
COc1cc(Br)cc2cc(-c3cn4ccsc4n3)c(=O)oc12; false (0)
Cc1cc(O)c2cc3c(O)c(O)ccc3cc2c1; true (1)

Short answer needed: outcome of this test for c1ccc(/N=C2\SC(c3ccccc3)CN2C23CC4CC(CC(C4)C2)C3)cc1 (stereo unspecified) ?
false (0)

Short answer needed: outcome of this test for CC(=O)O[C@@H]1CO[C@H]2O[C@H]3[C@@H](C(C=O)=C[C@H](O)[C@@H]4C5=C(C(C)C)CC[C@]5(C)CC[C@@]34C)[C@@]2(O)C1=O [STRIATIN E] ?
true (1)

Short answer needed: outcome of this test for COC(=O)c1c(O)ccc2c1c1c(n2Cc2ccccn2)C(=O)c2ccccc2C1 ?
false (0)

Short answer needed: outcome of this test for COC(=O)c1ccc(CCc2cc(O)c(Br)cc2O)cc1 ?
false (0)

Short answer needed: outcome of this test for COC(=O)C1=CSC2(S1)C(C(=O)OC)=CSc1c2ss/c1=N\c1ccccc1 (stereo unspecified) ?
false (0)

Short answer needed: outcome of this test for Cc1ccc(S(=O)(=O)N(/N=C(\N)Oc2ccc(Cl)cc2)C(=N)Oc2ccc(Cl)cc2)cc1 ?
false (0)

Short answer needed: outcome of this test for N#Cc1nc(-c2ccccn2)c(-c2ccccn2)nc1C#N ?
true (1)

###

Tested on: HCC 2998
Assay: NCI tumour cell line growth inhibition, 48 h
Calls of active or inactive are those of the source. Rule as the data show it: active = GI50 up to about 1.1 µM and inactive = higher.
Readout Name: GI50

CN(C)c1ccc2c(=O)c3ccccc3oc2n1; > 100 µM (inactive)
C#CCOCC12C=CC(O1)C1C(=O)OCC12 (stereo unspecified); > 100 µM (inactive)
CNc1ccc([S+]([O-])Nc2ccccc2)cc1 (stereo unspecified); 23.1 µM (inactive)
O[C@@]12Cc3c([nH]c4ccccc34)[C@@H]3Oc4c(-c5ccccc5)ccc5c4[C@@]31CCN(CC1CC1)[C@@H]2C5; 1.57 µM (inactive)
CC/C=N\N1C(N)=C(C#N)C(C#N)(C#N)C1CC (stereo unspecified); > 100 µM (inactive)

Turning now to a further record.
// GI50 lookup, key: COc1ccc(/C=C2\CCC(CNc3ccc(OC)cc3)C2=O)cc1 (stereo unspecified)
21.2 µM (inactive)

Attribution: ChEMBL document CHEMBL1201862
